Molecular target: T1, monkey MSR1 extracellular domain expressed with a N-terminal hexahistidine-myc-myc tag (HMM-mfMSR1) (monkey (Macaca fascicularis))
T1 chain: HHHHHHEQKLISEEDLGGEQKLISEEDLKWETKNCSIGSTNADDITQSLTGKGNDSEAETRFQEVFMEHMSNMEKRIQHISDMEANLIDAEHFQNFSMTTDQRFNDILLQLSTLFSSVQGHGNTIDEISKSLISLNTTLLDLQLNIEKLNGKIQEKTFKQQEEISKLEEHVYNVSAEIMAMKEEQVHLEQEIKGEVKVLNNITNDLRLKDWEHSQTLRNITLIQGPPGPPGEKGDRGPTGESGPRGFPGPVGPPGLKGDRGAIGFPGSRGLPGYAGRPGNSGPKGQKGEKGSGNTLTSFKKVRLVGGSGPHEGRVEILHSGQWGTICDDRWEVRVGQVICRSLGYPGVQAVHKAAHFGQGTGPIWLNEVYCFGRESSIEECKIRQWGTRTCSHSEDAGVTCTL
Assay: SPR Biacore, 25 C, antibody captured;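 also: rates from 1:1 fit with mass transport limitation of real-time sensorgrams, HEPES-buffered saline with EDTA and Tween-20 at pH 7.4, KD and t½ derived from the kinetic rates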
Hi there, I'd appreciate the recorded t½ for every entry that follows.
Kindly report the value followed by its unit.

Consider the reported t½ for these binders:
binder: H1H27731P-N297Q (antibody, V domains shown, Human IgG1 Fc with N297Q point mutation) VH: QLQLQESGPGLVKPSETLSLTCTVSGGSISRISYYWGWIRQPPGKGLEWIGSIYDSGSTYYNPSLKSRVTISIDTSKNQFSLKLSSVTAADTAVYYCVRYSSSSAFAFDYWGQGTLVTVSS VL: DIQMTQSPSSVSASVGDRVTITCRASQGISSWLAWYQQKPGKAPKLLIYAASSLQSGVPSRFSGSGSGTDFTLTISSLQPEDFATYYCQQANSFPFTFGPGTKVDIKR
t½: 4.12 h
--
binder: H1H27739P-N297Q (antibody, V domains shown, Human IgG1 Fc with N297Q point mutation) VH: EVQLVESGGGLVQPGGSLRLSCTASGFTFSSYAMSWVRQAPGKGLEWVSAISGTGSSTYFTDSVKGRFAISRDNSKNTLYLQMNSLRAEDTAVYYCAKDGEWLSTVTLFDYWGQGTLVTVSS VL: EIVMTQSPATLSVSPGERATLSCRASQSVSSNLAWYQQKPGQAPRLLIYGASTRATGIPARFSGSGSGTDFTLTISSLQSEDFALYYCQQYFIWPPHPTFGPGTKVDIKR
t½: 1.33 h

Item under review: H1H27747P-N297Q (antibody, V domains shown, Human IgG1 Fc with N297Q point mutation) VH: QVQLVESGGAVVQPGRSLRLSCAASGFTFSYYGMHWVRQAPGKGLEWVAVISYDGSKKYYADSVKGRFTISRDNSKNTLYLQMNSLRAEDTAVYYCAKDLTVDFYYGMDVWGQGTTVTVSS VL: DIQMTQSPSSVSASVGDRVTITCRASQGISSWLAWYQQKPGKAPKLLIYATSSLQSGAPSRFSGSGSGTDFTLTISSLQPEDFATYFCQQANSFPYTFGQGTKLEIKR . Reported t½?
0.217 h

Data origin, for the record: patent US20190367631A1
